Recorded values, source the supplement of paper PMC10567573.

- testDetails: protein stability index of a GFP-peptide fusion (GPS, HEK-293T) (PSI 1-6); higher = more stable;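 note: 24-mer peptide tiles fused after GFP, lentivirally expressed, FACS-sorted into six equal bins by GFP/DsRed ratio, decoded by Illumina sequencing, PSI is the read-weighted mean bin number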
- setupConditions: treatment: DMSO; c terminus: a fixed tail appended
measureName: protein stability index
Give bare numbers.

Worked examples follow.
sequenceChain	protein stability index
RLNIKKDDEFFHFVLLCFAIGALL [TMEM40]	2.73
STVTPVPGQEKGSALEGRADTTTG [EHMT1]	5.51
KNLYTNEYVAIKLEPMKSRAPQLH [CSNK1G3]	2.55

// input: 3 sequences below; output: protein stability index for each
1. KLFCIPVHGIRSVGTAAVNMCLVA [IMPA1]
2. INPFTPDSLLLHSSGQCRRRKRTY [WEE1]
3. VLVHCEAGISRSPTICMAYLMKTK [DUSP5]

1: 2.4; 2: 3.62; 3: 2.77

Please report protein stability index for every entry that follows.
1. LIYTLKNAEMKSAMRKLWSKKVSL [OR4A15]
2. SKNDNGKPDSVGLPPCAVRNLQDL [PCMTD1]
3. RNGGKYCEGRRTRFRSCNTEDCPT [ADAMTS4]

2.41
4.85
4.15

###

Can you tell me protein stability index for the items I'm about to list?
- testDetails: protein stability index of a GFP-peptide fusion (GPS, HEK-293T) (PSI 1-6); higher = more stable
- setupConditions: treatment: DMSO; c terminus: a fixed tail appended
One number for each entry.

Study these solved cases before continuing.
sequenceChain	protein stability index
FGCEECGKKYNTMLGYKRHLALHA [PLAGL1]	3.94
KEQEETIQRIDENVLGAQLDVEAA [STX5]	5.52
YKRRIDAENSPYLNPQLVQPAKKP [ESRRG]	4.01
VFYCDPCRLRCHPPRGPLAKHRLV [TRIM9]	2.19
GDLQDTKENREEARFQDKQYSSHH [CHGB]	5.18

Batch of 3 sequences: report protein stability index for each.
1. LLMTADILAETGIRKTVKRLRKHQ [ELOA2]
2. FVRGQEFKAHKSVLAARSPVFNAM [SPOPL]
3. NMERFGEDNLEDDDVEMKNGITQG [CDC14A]

[2.41, 2.66, 5.54]

Take each entry in turn and give its protein stability index.
1. YKGHTDVVRYLLEQRADPNAKAHC [FEM1B]
2. AQLSELRCEMEAQNQEYKMLLDIK [KRT15]
3. RHDSETEDMLWDDLLHGPECRSSV [PHTF1]
4. SITFTTGLEAPRDLEAKEVTPRTA [TNXB]
5. TPYVRWNYVAKNFAQALGCVLYAC [SOAT2]
6. LVARFLEQSSCTMTPDIHELVENI [FAM189A2]
7. KLATQHKQLISQTKKKQWCYNCEE [ZMYND11]
8. LTRPVPAGADLPPPKIRLKPHRLG [PWWP2B]

1: 3.27; 2: 3.65; 3: 4.68; 4: 5.22; 5: 2.7; 6: 2.54; 7: 3.48; 8: 3.91

Provide reported protein stability index for each item, in the same order as listed.
1. MLYAKPPPTINGIKGLQRKERLKP [KRT34]
2. NDNKVLRYLAVLESPIPEDKDRRF [EFHC1]

1. 3.1
2. 3.51

###

- testDetails: protein stability index of a GFP-peptide fusion (GPS, HEK-293T) (PSI 1-6); higher = more stable
- setupConditions: treatment: DMSO; c terminus: a fixed tail appended
measureName: protein stability index
One number for each entry.

Reference set (5 entries):
sequenceChain	measureName	measurement
PVVWWLNLLSIALYLLSGSIIAVA [POMT2]	protein stability index	3.27
DYRPMNHEAFKDELKTFRLKTRSW [CDC25B]	protein stability index	3.46
PEVTSALLESLNQQRLQGQLCDVS [ZBTB22]	protein stability index	3.57
FRALKRPLQFLGLFENSLCRLTHI [ZER1]	protein stability index	2.62
PIVPKIAGDGDTSNFETYPENDWD [PRKX]	protein stability index	5.51

For each of the items listed, what is its protein stability index?
1. REQILRVKDTDDVPMILVGNKCDL [RAP1B]
2. KARKTYERLVAQFPSSGRFWKLYI [CSTF3]

3.95
2.57
